# system name: EGFR A763_Y764insFHEA (Homo sapiens (Human), UniProt P00533, INS763FHEA)
# Sequence (P00533 other isoform, or with tags, fused parts or gaps del 1-694/ins FHEA behind 763 limits assumed): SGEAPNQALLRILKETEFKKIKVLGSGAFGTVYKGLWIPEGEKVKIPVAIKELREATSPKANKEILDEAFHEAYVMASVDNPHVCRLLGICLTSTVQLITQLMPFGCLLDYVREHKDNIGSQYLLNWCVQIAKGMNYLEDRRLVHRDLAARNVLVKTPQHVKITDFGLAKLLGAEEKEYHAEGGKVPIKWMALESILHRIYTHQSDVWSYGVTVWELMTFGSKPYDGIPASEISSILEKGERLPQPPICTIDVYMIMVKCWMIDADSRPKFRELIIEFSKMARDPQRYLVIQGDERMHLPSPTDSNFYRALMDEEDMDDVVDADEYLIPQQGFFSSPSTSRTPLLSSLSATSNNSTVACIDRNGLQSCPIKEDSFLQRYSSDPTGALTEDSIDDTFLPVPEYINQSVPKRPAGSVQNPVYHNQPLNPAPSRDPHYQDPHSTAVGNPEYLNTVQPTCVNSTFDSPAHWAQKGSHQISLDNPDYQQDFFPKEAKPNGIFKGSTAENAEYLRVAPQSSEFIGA
# test description: HTRF enzyme assay, EGFR Ex20 insertion mutant enzyme
# condition set: recombinant enzyme, 37° C. 2 hours
IC50 values for the compounds below.
Reply with just the number (in nM).

>  <mol smiles>
CCS(=O)(=O)N1CCc2cccc(Nc3nc(Nc4ccc(N5CCC(N6CCN(C)CC6)CC5)cc4OC)ncc3Cl)c21

>  <IC50 [nM]>
91

$$$$
>  <mol smiles>
COc1cc(N2CCC(N3CCN(C)CC3)CC2)ccc1Nc1ncc(Cl)c(Nc2cccc3c2N(S(C)(=O)=O)CCC3)n1

>  <IC50 [nM]>
11

$$$$
>  <mol smiles>
COc1cc(N2CCC(N3CCNCC3)CC2)ccc1Nc1ncc(Cl)c(Nc2cccc3c2N(S(C)(=O)=O)CC3)n1

>  <IC50 [nM]>
20

$$$$
>  <mol smiles>
COc1cc(N2CCC(N3CCN(C)CC3)CC2)ccc1Nc1ncc(Cl)c(Nc2cccc3c2N(S(C)(=O)=O)CC3)n1

>  <IC50 [nM]>
1.7

$$$$

Next, consider the following compound.
Report IC50 for `COc1cc(N2CCC(N3CCN(C)CC3)CC2)ccc1Nc1ncc(Cl)c(Nc2cccc3c2N(C(C)=O)CC3)n1` tested on EGFR A763_Y764insFHEA (Homo sapiens (Human), UniProt P00533, INS763FHEA).
178
